# credit: patent US20190241669A1

test target: T1, cynomolgus monkey BCMA (cynomolgus monkey, UniProt A0A2K5UD97 1-53)
T1 construct: Soluble analyte in SPR; construct not described; also called cyBCMA; Cyno BCMA
T1 sequence (A0A2K5UD97 entry or part of it): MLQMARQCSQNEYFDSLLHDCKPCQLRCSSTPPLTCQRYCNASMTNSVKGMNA
experiment notes: SPR, IgG on chip, cyBCMA analyte
readout label: kon (M⁻¹ s⁻¹)
The reply should be a number in M⁻¹ s⁻¹, with the unit left off.

{"binder": "C01_Rd4_0.6nM_C09 (antibody, V domains shown, IgG) VH: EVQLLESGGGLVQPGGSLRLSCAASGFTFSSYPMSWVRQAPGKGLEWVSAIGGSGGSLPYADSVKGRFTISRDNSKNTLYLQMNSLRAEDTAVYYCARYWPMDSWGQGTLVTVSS VL: EIVLTQSPGTLSLSPGERATLSCRASQSVSSLFLAWYQQKPGQAPRLLIYDASSRAPGIPDRFSGSGSGTDFTLTISRLEPEDFAVYYCQQYSAWPLTFGQGTKVEIK", "kon, M⁻¹ s⁻¹": "5.28e+06"}
{"binder": "COMBO_Rd4_0.6nM_C20 (antibody, V domains shown, IgG) VH: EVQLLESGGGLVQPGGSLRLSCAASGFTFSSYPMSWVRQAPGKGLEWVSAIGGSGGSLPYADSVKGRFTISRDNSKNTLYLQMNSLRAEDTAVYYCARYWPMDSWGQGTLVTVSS VL: EIVLTQSPGTLSLSPGERATLSCRASQSVSYLYLAWYQQKPGQAPRLLMYDASIRATGIPDRFSGSGSGTDFTLTISRLEPEDFAVYYCQQYMEWPLTFGQGTKVEIK", "kon, M⁻¹ s⁻¹": "3.09e+06"}
{"binder": "A02_Rd4_0.6nM_C09 (antibody, V domains shown, IgG) VH: EVQLLESGGGLVQPGGSLRLSCAASGFTFSSYAMNWVRQAPGKGLEWVSAISDSGGSMWYADSVKGRFTISRDNSKNTLYLQMNSLRAEDTAVYYCARYWPMSLWGQGTLVTVSS VL: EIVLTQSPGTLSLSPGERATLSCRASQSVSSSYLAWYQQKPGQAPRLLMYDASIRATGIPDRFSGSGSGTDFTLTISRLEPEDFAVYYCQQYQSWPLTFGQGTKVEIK", "kon, M⁻¹ s⁻¹": "2.13e+06"}

**Q:** Would you mind telling me what kon value was observed for COMBO_Rd4_0.6nM_C02 (antibody, V domains shown, IgG) VH: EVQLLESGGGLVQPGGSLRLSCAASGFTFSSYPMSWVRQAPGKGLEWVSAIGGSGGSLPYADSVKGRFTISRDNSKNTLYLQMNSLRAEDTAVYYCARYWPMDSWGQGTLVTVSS VL: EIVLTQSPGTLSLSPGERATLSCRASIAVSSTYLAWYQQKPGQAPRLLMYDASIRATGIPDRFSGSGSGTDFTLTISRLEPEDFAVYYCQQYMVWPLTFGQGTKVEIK ?
**A:** 3.01e+06

**Q:** Would you mind telling me what kon value was observed for COMBO_Rd4_6nM_C02 (antibody, V domains shown, IgG) VH: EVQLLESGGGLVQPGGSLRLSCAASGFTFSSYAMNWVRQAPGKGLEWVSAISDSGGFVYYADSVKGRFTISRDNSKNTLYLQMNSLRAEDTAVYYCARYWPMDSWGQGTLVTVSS VL: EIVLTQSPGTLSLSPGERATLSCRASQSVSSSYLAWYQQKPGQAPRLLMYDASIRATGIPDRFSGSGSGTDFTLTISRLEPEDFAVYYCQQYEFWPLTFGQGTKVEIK ?
**A:** 795000
